Listed compounds paired with reported cell viability
test system: P12-Ichikawa; test: cell viability relative to DMSO control; higher = less cytotoxic; settings: HPLM + 10% dialyzed FBS; 48 h; 15.4 µM
Endpoint: cell viability (%)

compound="Cc1ccc([S+](=O)([O-])NC(=O)NN2CC3CCCC3C2)cc1 (centres undefined)" endpoint="cell viability" test_value=44.5
compound="CCN(CCO)CCCC(C)Nc1ccnc2cc(Cl)ccc12 (centres undefined)" endpoint="cell viability" test_value=14.7
compound=Cc1n[nH]c(C)c1Cc1sc2c(c1C(=O)N1C[C@H](O)CO1)c(=O)n(C)c(=O)n2CC(C)C endpoint="cell viability" test_value=91.4
compound=Cc1cccc(Nc2nc(N[C@@H]3CCCC[C@@H]3N)ncc2C(N)=O)c1 endpoint="cell viability" test_value=10.8

###

system: P12-Ichikawa; experiment: AUC of viability dose-response curve (% viability x log10 dose units); higher = less sensitive; details: RPMI 5 mM glucose + 10% dialyzed FBS; 48 h
Endpoint: AUC of viability dose-response curve

mol_smiles=Cc1cc(-c2ccc(CC(=O)Nc3ccc(-c4cccnc4)cc3)cc2)ccn1 endpoint="AUC of viability dose-response curve" test_value=438
mol_smiles=CNCCN(C)Cc1c[nH]nc1-c1ccc(O[C@H]2C[C@H](OCCC3CCOCC3)C2)cc1 endpoint="AUC of viability dose-response curve" test_value=468
mol_smiles=O=C1CCc2cc(OCCCCc3nnnn3C3CCCCC3)ccc2N1 endpoint="AUC of viability dose-response curve" test_value=431
mol_smiles=COc1cc([C@@H]2c3cc4c(cc3[C@@H](O[C@@H]3O[C@@H]5CO[C@@H](C)O[C@H]5[C@H](O)[C@H]3O)[C@H]3COC(=O)[C@H]23)OCO4)cc(OC)c1O endpoint="AUC of viability dose-response curve" test_value=244
mol_smiles=CC(=O)OCC(CCn1cnc2cnc(N)nc21)COC(C)=O endpoint="AUC of viability dose-response curve" test_value=465
mol_smiles=C/C(=C\C(=O)Nc1ccccc1C(=O)O)c1ccc2ccccc2c1 endpoint="AUC of viability dose-response curve" test_value=456
mol_smiles=N[C@@H](Cc1cc(I)c(Oc2cc(I)c(O)c(I)c2)c(I)c1)C(=O)O endpoint="AUC of viability dose-response curve" test_value=468
mol_smiles=c1cc(N[C@@H]2CCNC2)nc(-c2cnc3ccc(-c4cn[nH]c4)cn23)c1 endpoint="AUC of viability dose-response curve" test_value=437
mol_smiles=Cc1nc(C(=O)NCC(=O)O)c(O)c2ccc(Oc3ccccc3)cc12 endpoint="AUC of viability dose-response curve" test_value=466

###

test system: NOMO1; test: AUC of viability dose-response curve (% viability x log10 dose units); higher = less sensitive; conditions: RPMI 5 mM glucose + 10% FBS; 48 h
Item-by-item account of AUC of viability dose-response curve
Endpoint: AUC of viability dose-response curve

compound=CC(=O)[C@H]1CC[C@H]2[C@@H]3C/C=C4/C[C@@H](O)CC[C@]4(C)[C@H]3CC[C@]12C test_value=472
compound=COCCNCCCn1c(C(=O)CF)c(-c2ccc(C)cc2)c2c(N)ncnc21 test_value=417
compound="Oc1ccc(C2CNCCc3c2cc(O)c(O)c3Cl)cc1 (stereo not drawn)" test_value=425
compound="CC(C(=O)O)c1ccc(-c2ccccc2)c(F)c1 (stereo not drawn)" test_value=476
compound=N[C@@H](Cc1cc(I)c(Oc2cc(I)c(O)c(I)c2)c(I)c1)C(=O)O test_value=473
compound=CC(C)C1=N[N](C\2=C1C(=O)N\C(=N2)CC3=CC=C(OCCO)C=C3)C4=C(Cl)C=CC=C4Cl test_value=226
compound=O=C1CCc2cc(OCCCCc3nnnn3C3CCCCC3)ccc2N1 test_value=433
compound=CC(C)(OCc1nn(Cc2ccccc2)c2ccccc12)C(=O)O test_value=442
compound=CCC1=C2CN3C(=O)\C4=C(/C=C3/C2=NC5=CC=C(O)C=C15)[C@@](O)(CC)C(=O)OC4 test_value=211
compound=CCCCC(F)(F)[C@@]1(O)CC[C@H]2[C@@H](CC(=O)[C@@H]2CCCCCCC(=O)O)O1 test_value=447
compound=CN1CCC(=C2c3ccccc3CCc3sccc32)CC1 test_value=477
compound=NC/1=N/C(=O)C2=C([NH]C=C2CCC3=CC=C(C=C3)C(=O)N[C@@H](CCC(O)=O)C(O)=O)N1 test_value=446
compound=CCOC(=O)c1c(/C(C#N)=C\N)c2ccc(Cl)c(Cl)c2n1C test_value=395
compound=CCC[S+](=O)([O-])Nc1ccc(F)c(C(=O)c2c[nH]c3ncc(-c4ccc(Cl)cc4)cc23)c1F test_value=477
compound="CCCCCCCN(CC)CCCC(O)c1ccc(NS(C)(=O)=O)cc1.CCCCCCCN(CC)CCCC(O)c1ccc(NS(C)(=O)=O)cc1.O=C(O)/C=C/C(=O)O (stereo not drawn)" test_value=463
compound="Clc1ccc(C(Cn2ccnc2)OCc2ccsc2Cl)c(Cl)c1 (stereo not drawn)" test_value=476
compound=CNC(=O)c1cc(Oc2ccc(NC(=O)Nc3ccc(Cl)c(C(F)(F)F)c3)c(F)c2)ccn1 test_value=438
compound=COC1=CC=CC(=C1/C2=N/CC3=C(N=C(NC4=CC(=C(C=C4)C(O)=O)OC)N=C3)C5=CC=C(Cl)C=C25)F test_value=291

###

Quick reference for cell viability among some compounds
tested on: NOMO1; assay: cell viability relative to DMSO control; higher = less cytotoxic; details: RPMI 5 mM glucose + 10% FBS; 48 h; 0.19 µM
Endpoint: cell viability (%)

compound=Cc1n[nH]c2ccc(-c3cncc(OC[C@@H](N)Cc4c[nH]c5ccccc45)c3)cc12 endpoint="cell viability" units_of_measure=% test_value=77.4
compound=CCc1nc(C(N)=O)c(Nc2ccc(N3CCC(N4CCN(C)CC4)CC3)c(OC)c2)nc1NC1CCOCC1 endpoint="cell viability" units_of_measure=% test_value=112
compound=NC(=O)Cc1cccc(C(=O)c2ccccc2)c1N endpoint="cell viability" units_of_measure=% test_value=88
compound=COC(=O)[C@@H]1CC2=CC(=O)CC[C@]2(C)[C@@]23O[C@@H]2C[C@@]2(C)[C@@H](CC[C@@]24CCC(=O)O4)[C@H]13 endpoint="cell viability" units_of_measure=% test_value=110
compound=NC(=O)[C@@H](CCC(F)(F)F)N(Cc1ccc(-c2ncon2)cc1F)[S+](=O)([O-])c1ccc(Cl)cc1 endpoint="cell viability" units_of_measure=% test_value=96.3
compound=NCC/1=C/NC(=S)N1[C@H]2CCC3=C(F)C=C(F)C=C3C2 endpoint="cell viability" units_of_measure=% test_value=103
compound="Clc1ccc(C(Cn2ccnc2)OCc2ccc(Sc3ccccc3)cc2)c(Cl)c1 (stereo not drawn)" endpoint="cell viability" units_of_measure=% test_value=125
compound=CC(=O)O[C@@]12CO[C@@H]1C[C@H](O)[C@]3(C)[C@@H]2[C@H](OC(=O)C4=CC=CC=C4)[C@]5(O)C[C@H](O)/C(=C(/[C@@H](O)C3=O)C5(C)C)C endpoint="cell viability" units_of_measure=% test_value=108

###

system: SEM cells; experiment: cell viability relative to DMSO control; higher = less cytotoxic; settings: HPLM + 10% dialyzed FBS; 48 h; 1.71 µM
Below: a set of entries, each annotated with reported cell viability.
Endpoint: cell viability (%)

compound="COc1cc([C@@H]2c3cc4c(cc3[C@@H](O)C3COC(=O)C32)OCO4)cc(OC)c1O (some centres undefined)" test_value=24.3
compound=Cc1ccc(Nc2nccc(N(C)c3ccc4c(C)n(C)nc4c3)n2)cc1[S+](N)(=O)[O-] test_value=91
compound=N[C@@H](Cc1cc(I)c(Oc2cc(I)c(O)c(I)c2)c(I)c1)C(=O)O test_value=120
compound=Cc1cccc(Nc2nc(N[C@@H]3CCCC[C@@H]3N)ncc2C(N)=O)c1 test_value=88.6
compound=NC(=O)c1c(OCc2c(F)cc(Br)cc2F)nsc1NC(=O)NCCCCN1CCCC1 test_value=111
compound=NCC/1=C/NC(=S)N1[C@H]2CCC3=C(F)C=C(F)C=C3C2 test_value=120
compound=Cc1cc(-c2ccc(CC(=O)Nc3ccc(-c4cccnc4)cc3)cc2)ccn1 test_value=87.8
compound=CC(C)C1=N[N](C\2=C1C(=O)N\C(=N2)CC3=CC=C(OCCO)C=C3)C4=C(Cl)C=CC=C4Cl test_value=6.16
compound=c1cc(N[C@@H]2CCNC2)nc(-c2cnc3ccc(-c4cn[nH]c4)cn23)c1 test_value=78.8

###

The reader will find reported AUC of viability dose-response curve values listed item by item below.
tested on: NOMO1; experiment: AUC of viability dose-response curve (% viability x log10 dose units); higher = less sensitive; conditions: RPMI 5 mM glucose + 10% FBS; 48 h
Endpoint: AUC of viability dose-response curve

mol_smiles=CNCCN(C)Cc1c[nH]nc1-c1ccc(O[C@H]2C[C@H](OCCC3CCOCC3)C2)cc1 test_value=461
mol_smiles=CC(C)C[C@H](NC(=O)c1cc2ccccc2s1)C(=O)N1CCN(C(=O)[C@H](CO)N[S+](=O)([O-])c2ccc(Cl)cc2Cl)CC1 test_value=468
mol_smiles=CN1\C(=C(O)/C2=C(C=C(Cl)S2)[S+]1([O-])=O)C(=O)NC3=NC=CC=C3 test_value=464
mol_smiles=CCOC\1=C(/C(=O)NC2=CC=C(OC3=C(Cl)C(=NC=C3)N)C(=C2)F)C(=O)N(\C=C1)C4=CC=C(F)C=C4 test_value=446
